# SUBJECT_OF_TEST: Cellular tumor antigen p53 (Homo sapiens) (UniProt P04637)
# Sequence (P04637 whole entry, looked up): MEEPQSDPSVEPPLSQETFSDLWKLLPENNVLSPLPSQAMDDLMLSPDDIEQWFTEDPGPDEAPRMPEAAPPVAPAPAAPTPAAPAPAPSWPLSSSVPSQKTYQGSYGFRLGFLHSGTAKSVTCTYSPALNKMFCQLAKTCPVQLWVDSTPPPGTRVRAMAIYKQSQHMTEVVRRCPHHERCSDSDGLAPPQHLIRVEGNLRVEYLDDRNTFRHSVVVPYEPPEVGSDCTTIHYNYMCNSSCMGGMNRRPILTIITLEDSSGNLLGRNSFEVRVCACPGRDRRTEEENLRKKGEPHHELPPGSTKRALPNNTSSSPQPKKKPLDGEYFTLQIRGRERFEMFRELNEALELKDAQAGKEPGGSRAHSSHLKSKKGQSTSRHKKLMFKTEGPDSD
# MEASUREMENT_NOTES: TOX21_p53_BLA_p5_ratio: Tox21 HCT-116 p53 Agonism Beta-lactamase Assay, Ratio, Phase 5 (AID 2283599)
Records with an inconclusive call do not appear. Active and inactive are the calls of the source. Rule for the calls: active = hit-call score of the fitted dose curve at least 0.9, where 1 is the maximum; inconclusive = response in the unintended direction; inactive = score below 0.9.
Thanks in advance; please answer with one of these: y (active), n (inactive)

MOLECULE	SUBJECT_OF_TEST	CATEGORY_LABEL
S=c1[nH]c2ccccc2s1	Cellular tumor antigen p53 (Homo sapiens) (UniProt P04637)	n
CCCCC(CC)COC(=O)CCCCCCCC(=O)OCC(CC)CCCC (configuration not stated)	Cellular tumor antigen p53 (Homo sapiens) (UniProt P04637)	n

Give the logged outcome of this assay for the following molecule: Cc1cc(Cc2ccc(N)c(C)c2)ccc1N n

Give the logged outcome of this assay for the following molecule: OCC(CO)n1cnc(-c2ccc(F)cc2)c1-c1ccnc(Oc2ccccc2)n1 n

Give the logged outcome of this assay for the following molecule: COc1ccc(C(=O)Nc2nc3ccccc3c(NCc3ccccc3)c2C#N)cc1 y

Give the logged outcome of this assay for the following molecule: CC1=C(C)S(=O)(=O)CCS1(=O)=O n

Give the logged outcome of this assay for the following molecule: CCCCc1nc2cccnc2n1Cc1ccc(-c2ccccc2-c2nnn[nH]2)cc1 n

* * *

# Read-out: Matrix Metallopeptidase 1 (MMP1), MMP1 (gene 4312)
# MEASUREMENT_NOTES: BSK_BE3C_MMP1: BioMAP Diversity Plus: BE3C Assay for Matrix Metallopeptidase 1 (MMP1) Biomarker Activity (AID 2283024)
# TEST_CONDITIONS: primary human bronchial epithelial cells; actives raise or lower the signal
Activity calls are given as the source filed them. How the source made its calls: active means hit-call score of the fitted dose curve at least 0.9, where 1 is the maximum; inactive means score below 0.9.
Thanks in advance; please answer with one of these: Yes for active, No for inactive

Some solved entries appear below for comparison.
MOLECULE	CATEGORY_LABEL
CC(=O)CC(c1ccccc1)c1c(O)c2ccccc2oc1=O (stereo unspecified)	No
O=C(O)c1[nH]n(-c2ccc(S(=O)(=O)O)cc2)c(=O)c1N=Nc1ccc(S(=O)(=O)O)cc1	No
CCCCCCCCCCCCCCOS(=O)(=O)O	Yes
Nc1nc(=S)c2[nH]cnc2[nH]1	No
CN(C)CCCN(C)CCCN(C)C	No
CCc1cc(C2=C(C(=O)O)N(c3ccccc3C(F)(F)F)S(=O)(=O)c3ccccc32)cc2c1OCO2	Yes

Give the logged outcome of this assay for the following molecule: CCC(C)N(C)C(=O)c1cc2ccccc2c(-c2ccccc2Cl)n1 (stereo unspecified) No

Give the logged outcome of this assay for the following molecule: CC(C)OC(=O)C(C)(C)Oc1ccc(C(=O)c2ccc(Cl)cc2)cc1 Yes

* * *

# SUBJECT_OF_TEST: X-box-binding protein 1 (Homo sapiens) (UniProt P17861)
# Sequence (P17861 whole entry, looked up): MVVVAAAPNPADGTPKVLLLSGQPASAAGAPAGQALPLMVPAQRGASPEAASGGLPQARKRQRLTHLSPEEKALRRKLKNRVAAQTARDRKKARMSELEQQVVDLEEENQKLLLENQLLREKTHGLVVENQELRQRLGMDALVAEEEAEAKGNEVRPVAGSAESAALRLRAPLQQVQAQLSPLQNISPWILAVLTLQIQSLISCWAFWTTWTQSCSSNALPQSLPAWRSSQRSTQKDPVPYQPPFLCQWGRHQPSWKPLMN
# MEASUREMENT_NOTES: ATG_Xbp1_CIS: Attagene CIS-FACTORIAL HepG2 Assay for human X-box Binding Protein 1 (XBP1) (AID 2282972)
# TEST_CONDITIONS: HepG2 XBP1 cis-element reporter, Attagene multiplex; actives raise or lower the signal
Calls of active or inactive are those of the source. Rule for the calls: active = hit-call score of the fitted dose curve at least 0.9, where 1 is the maximum; inactive = score below 0.9.
RESULT_TYPE: AC50

Below, each entry is followed by its recorded AC50 result.
COMPOUND	SUBJECT_OF_TEST	RESULT
COc1ccc(C(=O)Nc2nc3ccccc3c(NCc3ccccc3)c2C#N)cc1	X-box-binding protein 1 (Homo sapiens) (UniProt P17861)	inactive
OCC(CO)n1cnc(-c2ccc(F)cc2)c1-c1ccnc(Oc2ccccc2)n1	X-box-binding protein 1 (Homo sapiens) (UniProt P17861)	inactive
CN(C)C(=O)NC1(c2ccccc2)CCN(CCC[C@]2(c3ccc(Cl)c(Cl)c3)CCCN(C(=O)c3ccccc3)C2)CC1	X-box-binding protein 1 (Homo sapiens) (UniProt P17861)	4.69 µM (active)
CO[C@@H]1COCC[C@@H]1N[C@@H]1CC[C@@](C(=O)N2CCc3ncc(C(F)(F)F)cc3C2)(C(C)C)C1	X-box-binding protein 1 (Homo sapiens) (UniProt P17861)	inactive

Give AC50 for all compounds that follow.
1. C/C=C/C=C/C(=O)O
2. c1ccc2occc2c1
3. C/C=C/c1ccc(OC)cc1
4. Cc1c(C)c2c(c(C)c1O)CCC(C)(COc1ccc(CC3SC(=O)NC3=O)cc1)O2 (configuration not stated)
5. NC(=Nc1ccccc1)Nc1ccccc1
6. CCOCCOCCO
7. NC1CCCCC1

1. inactive
2. inactive
3. inactive
4. inactive
5. 57.2 µM (active)
6. inactive
7. inactive

# return recorded AC50 for entry O=C1O[C@H]([C@H](O)CO)C(O)=C1O inactive

* * *

# Read-out: Alpha-fetoprotein (AFP) gene, AFP (gene 174)
# MEASUREMENT_NOTES: LTEA_HepaRG_AFP: Life Technologies and Expression Analysis (LTEA) Assay for Alpha-fetoprotein (AFP) gene using HepaRG (AID 2283472)
# TEST_CONDITIONS: mRNA level, 48 h; actives raise or lower the signal
Active and inactive are the calls of the source. Rule for the calls: active = hit-call score of the fitted dose curve at least 0.9, where 1 is the maximum; inactive = score below 0.9.
Thanks in advance; please answer with one of these: active, inactive

MOLECULE	CATEGORY_LABEL
OCC(O)CO	inactive
Cc1cc(Cc2ccc(N)c(C)c2)ccc1N	inactive
CCCCCCC(C=O)=Cc1ccccc1	inactive
CN(C)CCCN1c2ccccc2Sc2ccc(Cl)cc21	active
S=c1[nH]c2ccccc2s1	inactive

Give the logged outcome of this assay for the following molecule: CC(N)=O inactive

Give the logged outcome of this assay for the following molecule: CCCCC(CC)COC(=O)CCCCCCCC(=O)OCC(CC)CCCC (centres undefined) inactive

Give the logged outcome of this assay for the following molecule: CC(C)COC(=O)CCCCC(=O)OCC(C)C inactive

Give the logged outcome of this assay for the following molecule: CCc1cc(C2=C(C(=O)O)N(c3ccccc3C(F)(F)F)S(=O)(=O)c3ccccc32)cc2c1OCO2 active

Give the logged outcome of this assay for the following molecule: CCOCCOCCO inactive

Give the logged outcome of this assay for the following molecule: O=C1O[C@H]([C@H](O)CO)C(O)=C1O inactive

Give the logged outcome of this assay for the following molecule: CC(=O)S[C@H](C(=O)N[C@H]1Cc2ccccc2[C@H]2CCC[C@@H](C(=O)O)N2C1=O)C(C)C inactive

Give the logged outcome of this assay for the following molecule: CSc1ccc(Oc2ccc(S(N)(=O)=O)cc2CN(C)C)cc1C active

Give the logged outcome of this assay for the following molecule: NC=O inactive

* * *

# SUBJECT_OF_TEST: Glucocorticoid receptor (Homo sapiens)
# MEASUREMENT_NOTES: ATG_GR_TRANS: Attagene TRANS-FACTORIAL HepG2 Assay for human Glucocorticoid Receptor (GR) (AID 2282978);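 note: activators score as hits since higher reporter transcript over DMSO is fitted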
# TEST_CONDITIONS: HepG2 Attagene TRANS GR reporter, mRNA transcription
Results filed as inconclusive are left out. Active and inactive are the calls of the source. The calls were made as follows: active = hit-call score of the fitted dose curve at least 0.9, where 1 is the maximum; inconclusive = response in the unintended direction; inactive = score below 0.9.
Thanks in advance; please answer with one of these: active, inactive

COMPOUND	CATEGORY_LABEL
CCCCCCC(CCCCCCCCCCC(=O)OCC(COC(C)=O)OC(C)=O)OC(C)=O (centres undefined)	inactive
CN(C)CCCN1c2ccccc2Sc2ccc(Cl)cc21	inactive
NCCOCCOCCN	inactive
O=C(O)CN(CC(=O)O)CC(=O)O	inactive
S=c1[nH]c2ccccc2s1	inactive
O=C1CCCCC1	inactive

Give the logged outcome of this assay for the following compound: CCc1cc(C2=C(C(=O)O)N(c3ccccc3C(F)(F)F)S(=O)(=O)c3ccccc32)cc2c1OCO2 inactive

Give the logged outcome of this assay for the following compound: CS(=O)(=O)c1ccc([C@@H](C[C@H]2CCC(=O)C2)C(=O)Nc2cnccn2)cc1Cl inactive

Give the logged outcome of this assay for the following compound: CCCCCCC(C=O)=Cc1ccccc1 inactive

Give the logged outcome of this assay for the following compound: CC(C)OC(=O)C(C)(C)Oc1ccc(C(=O)c2ccc(Cl)cc2)cc1 inactive

Give the logged outcome of this assay for the following compound: Cn1cnc2c1c(=O)[nH]c(=O)n2C inactive

* * *

# Read-out: Apoptosis regulator Bcl-2 (Homo sapiens)
# MEASUREMENT_NOTES: LTEA_HepaRG_BCL2: Life Technologies and Expression Analysis (LTEA) Assay for Bcl-2 gene using HepaRG (AID 2283475);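 note: BCL2 transcript by TaqMan qRT-PCR normalised to ACTB GAPDH and POLR2A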
# TEST_CONDITIONS: mRNA level, 48 h; actives raise or lower the signal
Calls of active or inactive are those of the source. How the source made its calls: active means hit-call score of the fitted dose curve at least 0.9, where 1 is the maximum; inactive means score below 0.9.
Thanks in advance; please answer with one of these: 1 (yes) for active, 0 (no) for inactive

SMILES_NOTATION	CATEGORY_LABEL
CC(=O)S[C@H](C(=O)N[C@H]1Cc2ccccc2[C@H]2CCC[C@@H](C(=O)O)N2C1=O)C(C)C	0 (no)
COC(=O)CCCC(=O)OC	0 (no)
CCCC[C@H]1CN(CC2CCOCC2)C(=O)OC12CCN(C1(C)CCN(C(=O)c3c(C)ncnc3C)CC1)CC2	0 (no)
O=C1OC(c2ccc(O)cc2)(c2ccc(O)cc2)c2ccccc21	1 (yes)
CN(C)CCCN1c2ccccc2Sc2ccc(Cl)cc21	0 (no)

Attention now turns to another entry.
Give the logged outcome of this assay for the following compound: c1ccc2occc2c1 0 (no)
